- MEASUREMENT PROTOCOL: NCI Yeast Anticancer Drug Screen. Data for the rad50 strain (AID 155);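 note: 0% = growth of vehicle-only cultures of the same strain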
- STUDY CONDITIONS: S. cerevisiae rad50 strain growth inhibition; at 50.0 µM; hits give high values
This is part of a sample that, as a whole, favours compounds with a hit. Of some 79,000 tested, about 15% had one in any assay.
Below: a set of entries, each annotated with reported growth inhibition.
QUANTITY NAME: growth inhibition (%)

• COc1ccc(N2NC(c3ccccc3)(c3ccccc3)C(C)C2=O)cc1 (stereo unspecified) = 48.2
• CCOC(=O)/C(=C\n1c(=O)[nH]c(=O)[nH]c1=S)C(=O)c1ccccc1 = -22.8
• CCOC(CCNCC(OCC)OCC)OCC = -46.5
• O=S(=O)(O)ON=C1c2ccccc2-c2ccccc21 = 0.6
• O=C1c2ccccc2C(=O)C1(c1ccccn1)[N+](=O)[O-] = 5.55
• CNCC(SC)c1ccc(O)c(O)c1 (stereo unspecified) = -9.8

* * *

- MEASUREMENT PROTOCOL: NCI Yeast Anticancer Drug Screen. Data for the rad50 strain (AID 155);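 note: 0% = growth of vehicle-only cultures of the same strain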
- STUDY CONDITIONS: S. cerevisiae rad50 strain growth inhibition; at 50.0 µM; hits give high values
Compounds without any hit were thinned out: in the full panel of roughly 79,000, 15% have a hit.
QUANTITY NAME: growth inhibition (%)

• [O-][n+]1ccccc1/C=C/c1cccc[n+]1[O-] = -30.1
• CCNC(=O)C1Cc2ccccc2N(CC)C1 (stereo not given) = -13.4
• Nc1nn(CC(O)CO)c(=O)s1 (stereo not given) = 4.85
• N#CC(c1ccccc1)C1CCN(Cc2ccccc2)CC1 (stereo not given) = 45.8
• O=c1cc(CCl)nc2c3ncn(C4OC(CO)C(O)C4O)c3ncn12 (stereo not given) = -11.8
• CC(=O)c1cc2ccccc2n(O)c1=N = -32.9
• Cc1ccccc1NC(=O)NNc1ccccc1 = 17
• O=C1C=CC(=Nc2ccc3c(c2)C(=O)c2cc(F)ccc2-3)O1 = -0.35
• CCC1(c2ccccc2)SCC(=O)NC1=O (stereo not given) = 21.1
• Nc1cc(=O)[nH]c(N)n1 = 10.2
• C=C1C(=O)OC2/C=C(\C)CC(O)/C=C(/CO)CC(OC(=O)/C(C)=C/C)C12 (stereo not given) = -4.5
• CCOC(=O)C(Cl)(NC(=O)NC(Cl)(C(=O)OCC)C(F)(F)F)C(F)(F)F (stereo not given) = 3.8
• C=C1c2c(cc3c(c2O)c(=O)c2ccccc2n3C)OC1(C)C = -31.2
• CCC(CCN(C)C)(OC(C)=O)c1ccccc1 (stereo not given) = 10.4
• CCCCCCC(N)=O = 8.1
• COC(=O)C1(C)C(=O)NC(=O)CC1C (stereo not given) = 9.65
• C=CCOC(=O)NC(CCC(N)=O)C(=O)O (stereo not given) = 19.7
• O=c1cc(-c2ccccc2)[nH]c2ccc(N3CCOCC3)cc12 = -37.7
• CN(C)c1ccc(/C=C(\C#N)c2nc(-c3cc4ccccc4oc3=O)cs2)cc1 = -2.45
• CCN(CC)CCc1c2c(nc3ccccc13)C(=O)c1cccnc1C2=O = 84.3
• O=C(O)C(=Cc1ccnc2ccccc12)C(=O)O = 7.75
• O=C(CC(=O)c1ccc(Cl)s1)C(=O)NC1C2CC3CC(C2)CC1C3 (stereo not given) = -15
• CC(=O)OC(C)c1cc2c(s1)C(=O)c1scc(C(C)OC(C)=O)c1C2=O (stereo not given) = 90.8
• COc1ccc(/C=C2\N=C(c3cc(OC)c(OC)c(OC)c3)OC2=O)cc1Br = -6.95
• Cc1ccc(S(=O)(=O)N/N=C2/CCC(C(C)(C)C)CC2Br)cc1 (stereo not given) = 3.9

Provenance of the data: PubChem BioAssay (NCI)
